# System: gastric acid secretion
# assay comment: Inhibitory Activity on Gastric Acid Secretion in Pylorus Ligated Rats (Test Example 2)
# Type: in vivo, rat (Sprague-Dawley, male)
# recorded conditions: Rattus norvegicus, intraduodenal, 10 mg/kg, i.d., 4 h
If the reported inhibition in vivo at 10 mg/kg equals or exceeds 60%, assign label 1. If not, assign label 0.

• CCOC(CN1C(=O)C(CC(=O)Nc2ccc(C)cc2)(NC(=O)Nc2cccc(OC)c2)c2ccccc21)OCC (racemic) [Example 85] = label 1
• CCOC(CN1C(=O)C(CC(=O)Nc2ccc(N(C)C)cc2)(NC(=O)Nc2cccc(OC)c2)c2ccccc21)OCC (single isomer, unassigned; (+)) [Example 191] = label 1
• CCOC(CN1C(=O)C(CC(=O)Nc2ccc(OC)nc2)(NC(=O)Nc2ccc(C)cc2)c2ccccc21)OCC (racemic) [Example 143] = label 1
• CCOC(CN1C(=O)C(CC(=O)Nc2ccc(C)cc2)(NC(=O)Nc2ccc(OC)cc2)c2ccccc21)OCC (racemic) [Example 79] = label 0
• CCOC(CN1C(=O)C(CC(=O)Nc2ccc(C)cc2)(NC(=O)Nc2ccc(C#N)cc2)c2ccccc21)OCC (racemic) [Example 92] = label 0
• CCOC(CN1C(=O)C(CC(=O)Nc2ccc(N(C)C)cc2)(NC(=O)Nc2ccc(C)cc2)c2ccccc21)OCC (single isomer, unassigned; (+)) [Example 180] = label 1
• CCOC(CN1C(=O)C(CC(=O)Nc2ccc(C)cc2)(NC(=O)Nc2ccccc2)c2ccccc21)OCC (racemic) [Example 84] = label 1
• CCOC(CN1C(=O)C(CC(=O)Nc2ccc(N(C)C(=O)C(F)(F)F)cc2)(NC(=O)Nc2ccc(C)cc2)c2ccccc21)OCC (racemic) [Example 131] = label 1
• CCOC(CN1C(=O)C(CC(=O)Nc2ccc(OC)cc2)(NC(=O)Nc2cccc(OC)c2)c2ccccc21)OCC (racemic) [Example 148] = label 1
• CCOC(CN1C(=O)C(CC(=O)Nc2ccc(OC)nc2)(NC(=O)Nc2ccc(C)cc2)c2ccccc21)OCC (single isomer, unassigned; (+)) [Example 181] = label 1
• CCOC(CN1C(=O)C(CC(=O)Nc2ccc(Cl)cc2)(NC(=O)Nc2ccc(C)cc2)c2ccccc21)OCC (racemic) [Example 114] = label 0
• CCOC(CN1C(=O)C(CC(=O)Nc2cccc(OC)c2)(NC(=O)Nc2ccc(C)cc2)c2ccccc21)OCC (racemic) [Example 129] = label 1

###

# Test system: gastric acid secretion
# assay comment: Inhibitory Activity on Gastric Acid Secretion in Pylorus Ligated Rats (Test Example 2)
# Format: in vivo, rat (Sprague-Dawley, male)
# recorded conditions: Rattus norvegicus, intraduodenal, 10 mg/kg, i.d., 4 h
If the reported inhibition in vivo at 10 mg/kg equals or exceeds 60%, assign Condition met. If not, assign Condition not met.

- CCOC(CN1C(=O)C(CC(=O)Nc2ccc(C)cn2)(NC(=O)Nc2cccc(OC)c2)c2ccccc21)OCC (racemic) [Example 158]: Condition met
- CCOC(CN1C(=O)C(CC(=O)Nc2ccc(C)cc2)(NC(=O)Nc2ccc(F)cc2)c2ccccc21)OCC (racemic): Condition not met
- CCOC(CN1C(=O)C(CC(=O)Nc2ccc(C)cc2)(NC(=O)Nc2cccc(F)c2)c2ccccc21)OCC (racemic): Condition met
- CCOC(CN1C(=O)C(CC(=O)Nc2ccc(C)cn2)(NC(=O)Nc2ccc(C)cc2)c2ccccc21)OCC (racemic) [Example 138]: Condition met
- CCOC(CN1C(=O)C(CC(=O)Nc2ccc(C)cc2)(NC(=O)Nc2cccc(Cl)c2)c2ccccc21)OCC (racemic): Condition met
- CCOC(CN1C(=O)C(CC(=O)Nc2cccc(C)c2)(NC(=O)Nc2ccc(C)cc2)c2ccccc21)OCC (racemic): Condition met
- CCOC(CN1C(=O)C(CC(=O)Nc2ccc(Cl)cc2)(NC(=O)Nc2cccc(OC)c2)c2ccccc21)OCC (racemic): Condition met
- CCOC(CN1C(=O)C(CC(=O)Nc2ccc(C)cc2)(NC(=O)Nc2ccc(C)cc2)c2ccccc21)OCC (racemic) [Example 71]: Condition not met
- CCOC(CN1C(=O)C(CC(=O)Nc2ccc(F)cc2)(NC(=O)Nc2ccc(F)cc2)c2ccccc21)OCC (racemic): Condition met
- CCOC(CN1C(=O)C(CC(=O)Nc2cccc(OC)c2)(NC(=O)Nc2cccc(OC)c2)c2ccccc21)OCC (racemic): Condition met
- CCOC(CN1C(=O)C(CC(=O)Nc2ccc(C)cn2)(NC(=O)Nc2ccc(C)cc2)c2ccccc21)OCC (single isomer, unassigned; (+)) [Example 179]: Condition met

###

# study target: gastrin receptors (guinea pig gastric glands) (Cavia porcellus, UniProt H0VZC5)
# Construct: The gastric glands were isolated from the tissue with a pipette
# Sequence (H0VZC5 1-426): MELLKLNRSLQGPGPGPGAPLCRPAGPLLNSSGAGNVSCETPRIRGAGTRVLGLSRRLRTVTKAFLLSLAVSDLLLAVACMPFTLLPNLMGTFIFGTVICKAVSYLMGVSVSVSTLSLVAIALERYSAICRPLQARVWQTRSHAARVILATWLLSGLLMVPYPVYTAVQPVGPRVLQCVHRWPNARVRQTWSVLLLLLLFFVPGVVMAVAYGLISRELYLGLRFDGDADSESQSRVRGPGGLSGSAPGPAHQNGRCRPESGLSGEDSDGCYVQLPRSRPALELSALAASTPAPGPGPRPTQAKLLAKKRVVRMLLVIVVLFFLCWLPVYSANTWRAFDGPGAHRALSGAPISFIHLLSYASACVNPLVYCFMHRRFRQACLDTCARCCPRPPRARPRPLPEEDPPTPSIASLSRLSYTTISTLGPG
# assay comment: Gastrin Receptor Binding Test in Guinea Pig Gastric Glands (Test Example 1)
# recorded conditions: inhibition of specific 125I-gastrin I human binding (22.5 pM), 25° C., 45 min
Examples of molecules with documented IC50 follow.
endpoint label: IC50 (nM)

- CCOC(CN1C(=O)C(CC(=O)Nc2ccc(C)c(C)c2)(NC(=O)Nc2ccc(C)cc2)c2ccccc21)OCC (racemic): 2.9
- CCOC(CN1C(=O)C(CC(=O)Nc2ccc(Cl)cc2)(NC(=O)Nc2ccc(Cl)cc2)c2ccccc21)OCC (racemic): 2.6
- CCOC(CN1C(=O)C(CC(=O)Nc2ncccn2)(NC(=O)Nc2ccc(C)cc2)c2ccccc21)OCC (racemic): 8.9
- CCOC(CN1C(=O)C(CC(=O)Nc2ccc(C)cc2)(NC(=O)Nc2ccc(C)cc2)c2ccccc21)OCC (racemic) [Example 71]: 1.1
- CCOC(CN1C(=O)C(CC(=O)Nc2ccc(C)cn2)(NC(=O)Nc2ccc(C)cc2)c2ccccc21)OCC (racemic) [Example 138]: 2.2
- CCOC(CN1C(=O)C(CC(=O)Nc2ccc(N(C)C(=O)C(F)(F)F)cc2)(NC(=O)Nc2ccc(C)cc2)c2ccccc21)OCC (racemic): 23
- CCOC(CN1C(=O)C(CC(=O)Nc2ccc(C)cn2)(NC(=O)Nc2ccc(C)cc2)c2ccccc21)OCC (single isomer, unassigned; (+)) [Example 179]: 1.6
- CCOC(CN1C(=O)C(CC(=O)Nc2ccc(C)cc2)(NC(=O)Nc2cccc(F)c2)c2ccccc21)OCC (racemic): 3.5
- CCOC(CN1C(=O)C(NC(=O)Nc2ccc(F)cc2)(NC(=O)Nc2ccc(F)cc2)c2ccccc21)OCC: 2.2
- CCOC(CN1C(=O)C(CC(=O)Nc2ccc(C)cc2)(NC(=O)Nc2ccccc2)c2ccccc21)OCC (racemic): 3.4
- CCOC(CN1C(=O)C(CC(=O)Nc2ccc(N(C)C)cc2)(NC(=O)Nc2cccc(OC)c2)c2ccccc21)OCC (racemic) [Example 156]: 6.5
- CCOC(CN1C(=O)C(CC(=O)Nc2ccc(Cl)cc2)(NC(=O)Nc2ccc(C)cc2)c2ccccc21)OCC (racemic): 2.4
- CCOC(CN1C(=O)C(CC(=O)Nc2ccc(N)cc2)(NC(=O)Nc2ccc(C)cc2)c2ccccc21)OCC (racemic): 2.5
- CCOC(CN1C(=O)C(CC(=O)Nc2cccc(OC)c2)(NC(=O)Nc2cccc(OC)c2)c2ccccc21)OCC (racemic): 2.9
- CCOC(CN1C(=O)C(CC(=O)Nc2ccc(N(C)C)cc2)(NC(=O)Nc2cccc(OC)c2)c2ccccc21)OCC (single isomer, unassigned; (+)) [Example 191]: 5.5
- CCOC(CN1C(=O)C(CC(=O)Nc2ccc(OC)nc2)(NC(=O)Nc2ccc(C)cc2)c2ccccc21)OCC (single isomer, unassigned; (+)) [Example 181]: 2.2
- CCOC(CN1C(=O)C(CC(=O)Nc2cccc(OC)c2)(NC(=O)Nc2ccc(C)cc2)c2ccccc21)OCC (racemic): 3.6
- CCOC(CN1C(=O)C(CC(=O)Nc2ccc(C)cc2)(NC(=O)Nc2cccc(C)c2)c2ccccc21)OCC (racemic): 1.6
- CCOC(CN1C(=O)C(CC(=O)Nc2ccc(N(C)C)cc2)(NC(=O)Nc2ccc(C)cc2)c2ccccc21)OCC (racemic) [Example 130]: 4.9
- CCOC(CN1C(=O)C(CC(=O)Nc2ccc(C)cc2)(NC(=O)Nc2cccc(OC)c2)c2ccccc21)OCC (racemic) [Example 85]: 1.2
- CCOC(CN1C(=O)C(CC(=O)Nc2cccc(C)c2)(NC(=O)Nc2ccc(C)cc2)c2ccccc21)OCC (racemic): 5.1
- CCOC(CN1C(=O)C(CC(=O)Nc2ccc(C)cc2)(NC(=O)Nc2ccc(OC)cc2)c2ccccc21)OCC (racemic): 1.9
- CCOC(CN1C(=O)C(CC(=O)Nc2ccc(C)cn2)(NC(=O)Nc2cccc(OC)c2)c2ccccc21)OCC (racemic) [Example 158]: 1.4
- CCOC(CN1C(=O)C(CC(=O)Nc2ccc(C)cc2)(NC(=O)Nc2ccc(C)cc2)c2ccccc21)OCC (single isomer, unassigned; (+)) [Example 174]: 0.54
- CCOC(CN1C(=O)C(CC(=O)Nc2ccc(F)cc2)(NC(=O)Nc2cccc(OC)c2)c2ccccc21)OCC (racemic): 1
